Just for reference, patent US20030148956A1 is where these values come from.

Recorded CRF1R Emax values for a group of binders are listed next.
target_entity: CRF1R
assay_details: cell-based or functional assay
Ends that are not written are not given here.
measurement_label: CRF1R Emax (%)

binder | numeric_result
IVLSLDVPIGLLQILLEQRARAAREQATTNARILARV-NH2 [SEQ ID NO 137] | 4
ZGPPISIDVPTYLLRILIEIEKQEKEKQQATTNARILARV (C-terminal amide) [SEQ ID NO 169] | 26
ZGPPISIDLPIILLRKMIEIEKQEKEKQQAANNRLLLDTI (C-terminal amide) [SEQ ID NO 36] | 33
ZGPPISIDLPFQLLRKMIEIEKQEKEKQQATTNARLLDRV (C-terminal amide) [SEQ ID NO 22] | 64
ZGPPISIDLPIHLLRKMIEIEKQEKEKQQAANNRLLLDTI (C-terminal amide) [SEQ ID NO 77] | 5
ZGPPISIDLPTYLLRKMIEIEKQEKEKQQAANNRLLLDTI (C-terminal amide) [SEQ ID NO 70] | 8
ZGPPISIDLPAYLLRKMIEIEKQEKEKQQAANNRLLLDTI (C-terminal amide) [SEQ ID NO 32] | 94
SQEPPISLDLTIHLLREVLEMTKADQLAQQAHSNRKLLDIA-NH2 [SEQ ID NO 87] | 5.3
ZGPPISIDLPFQLLRKMIEIEKQEKEKQQATTNRLLLDTI (C-terminal amide) [SEQ ID NO 13] | 69
SQEIVLSLDVPIGLLREVLEMTKADQLAQQAHSNRKLLDIA-NH2 [SEQ ID NO 7] | 4
SEEPPISLDVPIGLLQEVLEMARAEQLAQQAHSNRKLMEII-NH2 [SEQ ID NO 162] | 11
ZGPPISIDLPLELLRKMIEIEKQEKEKQQAANNRLLLDTI (C-terminal amide) [SEQ ID NO 82] | 85
ZGPPISIDLSIGLLRKMIEIEKQEKEKQQAANNRLLLDTI (C-terminal amide) [SEQ ID NO 25] | 92.3
DNPSLSIDLPLFLLRTLLELARTQSQRERAEQNAIIFASV-NH2 [SEQ ID NO 178] | 55.7
ZGPPISIDLPILLLRKMIEIEKQEKEKQQAANNRLLLDTI (C-terminal amide) [SEQ ID NO 35] | 74
ZGPPISIDLPTGLLRKMIEIEKQEKEKQQAANNRLLLDTI (C-terminal amide) [SEQ ID NO 73] | 11
DNPSLSIDLPFHLLRTLLELARTQSQRERAEQNAIIFASV-NH2 [SEQ ID NO 185] | 95.8
ZGIVLSLDVPIGLLRKMIEIEKQEKEKQQAANNRLLLDTI (C-terminal amide) [SEQ ID NO 153] | 7
ZGPPISIDLPFHLLRKMIEIEKQEKEKQQAANNRLLLDTI (C-terminal amide) [SEQ ID NO 69] | 88
IVLSLDVPIGLLQILLEQTKADQLAQQAHSNRKLLDIA-NH2 [SEQ ID NO 159] | 9
